- measured target: T1, human MASP-2cf CCP1-CCP2-SP (human, UniProt O00187 298-686, limits assumed)
- T1 construct: domain: CCP1-CCP2-SP; also called human MASP-2 catalytic fragment
- T1 sequence (O00187 298-686 limits assumed): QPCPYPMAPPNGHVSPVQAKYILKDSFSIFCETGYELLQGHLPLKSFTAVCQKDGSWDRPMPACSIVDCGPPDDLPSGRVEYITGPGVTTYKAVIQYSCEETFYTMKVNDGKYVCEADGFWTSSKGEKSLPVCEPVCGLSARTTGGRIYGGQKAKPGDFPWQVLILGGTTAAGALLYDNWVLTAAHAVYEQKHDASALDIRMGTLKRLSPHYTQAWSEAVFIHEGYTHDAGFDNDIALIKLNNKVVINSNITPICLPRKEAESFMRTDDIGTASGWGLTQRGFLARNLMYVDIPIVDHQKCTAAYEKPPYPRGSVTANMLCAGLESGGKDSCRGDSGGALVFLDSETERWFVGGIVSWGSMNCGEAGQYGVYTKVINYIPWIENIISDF
- experiment description: SPR, target immobilised
Where no end group is shown, it is not given here.
readout label: koff (s⁻¹)
The response must be a number in s⁻¹ with no trailing unit.

| binder | koff [s⁻¹] |
| --- | --- |
| EVO215 (designed binder, not fully specified; ends and bridges not checked, Modified TFPI-D2 Kunitz domain; made as m1) KPDFCFLENDPGWCRAAKRRYFYNNQTKQCERFGYGGCLGNMNNFVTLEECKNICEDG | 0.000559 |

[ask] Which koff value belongs to EVO22 (designed binder, not fully specified; cysteine pairing not given here, Modified TFPI-D2 Kunitz domain; made as m1) KPDFCFLENDPGPCRALKRRYFYNNQTKQCERFYYGGCLGNMNNFVTLEECKNICEDG ?
[reply] 0.000314
